protocol: Half life in Sprague-Dawley rat at 15 mg/kg, po measured upto 24 hrs by UPLC analysis
Type: ADME, organism-based
condition-details: in vivo
reported-property: half-life (h)
# unit: h | format: bare number

For the compound `N#CCc1cnc(-c2ccc(Cl)c(Cl)c2)n1-c1ccnc(N[C@H]2CCCN(C(=O)C3CC3)C2)n1` , what half-life is on record? 1.75

====

experimental-system: Dual specificity mitogen-activated protein kinase kinase 6 (Homo sapiens)
Sequence (P52564 whole entry): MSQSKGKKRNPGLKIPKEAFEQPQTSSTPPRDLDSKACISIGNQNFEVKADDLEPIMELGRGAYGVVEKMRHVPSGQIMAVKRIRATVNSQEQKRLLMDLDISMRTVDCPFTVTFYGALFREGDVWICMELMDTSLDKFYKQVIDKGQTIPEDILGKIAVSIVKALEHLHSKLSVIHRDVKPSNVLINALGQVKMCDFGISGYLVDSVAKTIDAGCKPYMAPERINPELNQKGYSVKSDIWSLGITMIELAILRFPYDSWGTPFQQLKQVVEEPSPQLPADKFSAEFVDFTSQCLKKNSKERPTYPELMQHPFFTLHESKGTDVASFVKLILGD
protocol: Inhibition of MKK6 (unknown origin) assessed as incorporation of 33P-ATP
reported-property: pIC50
Remember, pIC50 is on a log scale: it is -log10 of the molar concentration.

For the molecule `N#CCc1cnc(-c2ccc3ccccc3c2)n1-c1ccnc(N[C@H]2CCCN(C(=O)C3CC3)C2)n1` , what pIC50 is on record? 4.82
